Test system: nude mice, LX-1 lung xenograft intrarenal, tumor weight T/C
Experiment: NCI In Vivo Anticancer Drug Screen. Data for tumor model Human Lung LX-1 Xenograft (intrarenal inoculation) in NU/NU Swiss (nude) mice
Settings: endpoint: mean tumor weight change; dose: 2.5 mg/kg/injection; schedule: Q04DX003 (sc); vehicle: saline; higher = larger tumour
Records with an inconclusive call do not appear.
metric: T/C

• COC(=O)C[C@](O)(CCC(C)(C)O)C(=O)O[C@@H]1C(OC)=C[C@]23CCCN2CCc2cc4c(cc2[C@H]13)OCO4 = 95 % of control
• NC(=O)c1[nH]nc(C2OC(CO)C(O)C2O)c1O (centres undefined) = 109 % of control
• CC1=C(O)C(=O)[C@@H]2O[C@@H]2C1=O = 106 % of control
• c1ccc([P+](c2ccccc2)(c2ccccc2)c2ccccc2)cc1 = 93 % of control

###

Form field: T/C (one value per entry).
Tested on: nude mice, LX-1 lung xenograft intrarenal, tumor weight T/C
Assay: NCI In Vivo Anticancer Drug Screen. Data for tumor model Human Lung LX-1 Xenograft (intrarenal inoculation) in NU/NU Swiss (nude) mice
Settings: endpoint: mean tumor weight change; dose: 0.25 mg/kg/injection; schedule: Q01DX010 (sc); vehicle: saline; higher = larger tumour
Records with an inconclusive call do not appear.
metric: T/C

• CO[C@H](C(=O)[C@@H](O)[C@@H](C)O)[C@@H]1Cc2cc3cc(OC4CC(OC5CC(O)C(O)C(C)O5)C(O)C(C)O4)c(C)c(O)c3c(O)c2C(=O)[C@H]1OC1CC(OC2CC(OC3CC(C)(O)C(O)C(C)O3)C(O)C(C)O2)C(O)C(C)O1 (some centres not stated) = 120 % of control
• CC[C@]1(O)C[C@H]2CN(CCc3c([nH]c4ccccc34)[C@@](C(=O)OC)(c3cc4c(cc3OC)N(C=O)[C@H]3[C@@](O)(C(=O)OC)[C@H](OC(C)=O)[C@]5(CC)C=CCN6CC[C@]43[C@@H]65)C2)C1 = 102 % of control

###

Test system: nude mice, LX-1 lung xenograft intrarenal, tumor weight T/C
Assay: NCI In Vivo Anticancer Drug Screen. Data for tumor model Human Lung LX-1 Xenograft (intrarenal inoculation) in NU/NU Swiss (nude) mice
Settings: endpoint: mean tumor weight change; dose: 400.0 mg/kg/injection; schedule: Q04DX003 (sc); vehicle: suspension in saline; higher = larger tumour
Inconclusive results are not listed.
metric: T/C

- CC(C)=CCNc1ncnc2c1ncn2C1OC(CO)C(O)C1O (stereo not given): 112 % of control
- O=C[C@@H](CO)O[C@H](C=O)n1cnc2c(=O)[nH]cnc21: 59 % of control
- C[Si](C)(C)O/C=C1/CCOC1=O: 106 % of control
- Cc1ccc2nc(-c3ccc4nc(-c5ccc(N=Nc6ccc(-c7nc8ccc(-c9nc%10ccc(C)c(S(=O)(=O)O)c%10s9)cc8s7)cc6)cc5)sc4c3)sc2c1S(=O)(=O)O: 64 % of control
- Cn1cnc([N+](=O)[O-])c1Sc1ncn[nH]1: 32 % of control

###

Tested on: nude mice, LX-1 lung xenograft intrarenal, tumor weight T/C
Experiment: NCI In Vivo Anticancer Drug Screen. Data for tumor model Human Lung LX-1 Xenograft (intrarenal inoculation) in NU/NU Swiss (nude) mice
Details: endpoint: mean tumor weight change; dose: 37.5 mg/kg/injection; schedule: Q04DX003 (sc); vehicle: saline with Tween-80; higher = larger tumour
Description: The antitumor activity of compounds was measured in mice bearing transplantable tumors. Survival or tumor size were measured and the results are expressed as the measurement made in the treated group (T) divided by the measurement made in the vehicle treated control group (C). The tumor model used in this assay is Human Lung LX-1 Xenograft (intrarenal inoculation) in NU/NU Swiss (nude) mice
Inconclusive results are not listed.
Form field: T/C (one value per entry).
metric: T/C

* Nc1nc(N)c2c(ccc3c2ccn3Cc2cccc([N+](=O)[O-])c2)n1 | 100 % of control
* C=C1C(=O)O[C@@H]2[C@H](O)[C@@H](C)[C@@H]3C=CC(=O)[C@@]3(C)[C@H](OC(=O)C=C(C)C)[C@H]12 | 100 % of control
* CCOC(=O)Nc1cc2c(c(N)n1)N=C(c1ccc(Cl)cc1Cl)CN2 | 82 % of control
* Clc1cc(Cl)c(C[N+]23CN4CN(CN(C4)C2)C3)cc1Cl | 96 % of control
* O=C(O)C1CC1.[Ag] | 63 % of control
